# TESTED_ON: T1, GST-LIM protein PDZ domain fusion protein (Human, UniProt Q96HC4 2-85)
# T1 construct: also called Human LIM protein; not shown: glutathione S-transferase encoded by vector pGEX-3X (Pharmacia)
# T1 sequence: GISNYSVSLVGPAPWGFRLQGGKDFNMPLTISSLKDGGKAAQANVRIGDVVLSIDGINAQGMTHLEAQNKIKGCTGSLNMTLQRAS
# ASSAY_EXPLANATION: A/G assays
Ends that are not written are not given here. * marks the point of attachment. Biotin = O=C1N[C@H]2[C@H](CS[C@H]2CCCCC(=O)*)N1
READOUT_NAME: binding result

Before answering, review these 6 worked examples.
Biotin-SMQPDNSSDSDYDLHGAQRL (Only the last four residues are seen in the excerpts) [CD5 C-terminal peptide AA49L]: no binding
Biotin-VTSPNKHLGLVTPHKTELV [CD83 C-terminal peptide AA47L, biotinylated]: no binding
Biotin-CAISGTSSDRGYGSPRYAEV (also called AA3L-V) [Clasp-4 C-terminal peptide AA3L, biotinylated]: no binding
Biotin-GTSDMKDLVGNIEQNEHSVI (Only the last four residues are seen in the excerpts) [Mannose receptor C-terminal peptide AA31L]: no binding
Biotin-KDSRPSFVGSSSGHTSTTL (also called CDW128E (IL8RB)) [CDW128B (IL8RB) C-terminal peptide AA29.2L, biotinylated]: no binding
Biotin-QGDPALQDAGDSSRKEYFI (also called GC) [Glycophorin C C-terminal peptide AA37L, biotinylated]: no binding

Continue with the next binder.
Tell me measured binding result for Biotin-ARKANMKGSYSLVEAQKSKV (also called CD106) [VCAM1 C-terminal peptide AA17L, biotinylated] please.
no binding
